Biological target: T1, soluble IGF-1R (recombinant human IGF-1R extracellular domain, R&D Systems Cat. # 391-GR/CF) (human, UniProt P08069 31-935)
T1 construct: extracellular domain; Bought protein; coated on plates (phage ELISA, TRF) or Eu-labelled (TR-FRET); also called sIGF-1R; rhIGF-1R
Assay: phage ELISA
Parameter measured: log10 of ratio over background (log10 of the value in ratio)
Would you kindly interpret these values as log10 of ratio over background expressed in ratio?

Worked examples follow.
IWATGDFYRLLSQLVMGRVGT (on phage) [20E2B-2-28-IGFR]    0.76
PGTDLGFYQALRCVVIQGACD (on phage) [20E2B-2-B2-IGFR]    0.69
SSYGCDGFYLMLFSLGLVASQELEC (on phage) [20C-3-A1-IGFR]    1.32
CCLLCRFQQNFYDWFVCQGISRLRPL (on phage) [H2CA-2-B4-IGFR]    0.61
PDLHKGFYAQLAQLIRGQLLS (on phage) [20E2B-3-E3-IGFR]    1.21

## Task Query (binder): DSVGDNFYQLLESLVGGHGVG (on phage) [20E2B-3-D6-IGFR] ; field requested: log10 of ratio over background
## Result 1.25

## Task Now the same for RFDPFYSYFVNLLGASA (on phage) [NNRPγ-4-A7-IR]
## Result 0.80

## Task RCQGTGFYTCIQELIGFGDPD (on phage) [20E2B-4-H9-IGFR] ?
## Result 0.72
